Task for the reader: assign each of the following binders its reported absorbance at 450 nm.
Biological target: T1, fragment DIR-II (last 27 amino acids of the sequence encoded by the retained intron of DIR) (human)
T1 construct: also called target fragment DIR-II
T1 peptide: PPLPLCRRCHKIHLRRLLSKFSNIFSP
Test: ELISA, DIR-II coated; mAb (1 mg/mL) diluted 1:4374k

Illustrative cases are given below, each with its answer.
BINDER	EXPERIMENTAL_RESULT
DIR antibody IR-II-10 (A2D10) (antibody, V domains shown, Monoclonal antibody) VH: EVQLQQSGPELVKPGASVKISCKTSGYTFTEYTMHWVKQSHGKSLEWIGGIYPHNGGTNYNQKFKGKATLTVDKSSSTAYMELRSLTSEDSAVYYCTEDLTFDYWGQGTTLTVSS VL: DIQMTQTTSSLSASLGDRVTISCSASQDISNYLNWYQQKPDGTVKLLIYYTSSLHSGVPSRFSGSGSGTDYSLTISNLEPEDIATYHCLQYSKLPFTFGSGTKLEIK	0.0427 absorbance (450 nm)
DIR antibody IR-II-8 (antibody, V domains shown, Monoclonal antibody) VH: QVQLQQSGAELMKPGASVKISCKATGYTFSNYWIEWVKQRPGHGLEWIGEILPGSGSTNYNEKFKGKATFTADTSSNTAYMQLSSLTSEDSAVYYCARSGMITTRGDYFAMDYWGQGTSVTVSS VL: DIELTQSPASLAVSLGQRATISCKASQSVDYDGESYMNWYQQKPGQPPKLLIYAASNLESGIPARFSGSGSGTDFTLNIHPVEEEDAATYYCQQSNDDPRTFGGGTKLEIK	0.0887 absorbance (450 nm)
DIR antibody IR-II-7 (antibody, V domains shown, Monoclonal antibody) VH: QVQLQQSGAELMKPGASVKISCKATGYTFSNYWIEWIKQRPGHGLEWIGEILPGSYYSTNYNEKFKDKATFTADTSSNTAYIQLSSLTSEDSAVYYCARSGIITTRGDYFAMDYWGQGTSVTVSS VL: DIVLTQSPASLAVSLGQRATISCKASQSVDYDGDSYMNWYQQKPGQPPKLLMYAASNLESGIPARFSGSGSGTDFTLNIHPVEEEDAATYYCQQSNEDPRTFGGGTKLEIK	0.0867 absorbance (450 nm)
DIR antibody IR-II-4 (antibody, V domains shown, Monoclonal antibody) VH: QVQLQQSGAELMKPGASVKISCKATGYTFSSYWIEWVKQRPGHGLEWIGEILPGSGSTNYNEKFKGKATFTADTSSNTAYMQLNSLTSEDSAVYYCARTDDGYLSYFAMDYWGQGTSVTVSS VL: DILMTQTPASLAVSLGQRATISCKASQSVDYDGDSYMNWYQQKPGQPPKLLIYAASNLESGIPARFSGSGSGTDFTLNIHPVEEEDAATYYCQQSNEDPRTFGGGTKLEIK	0.0775 absorbance (450 nm)
DIR antibody IR-II-5 (antibody, V domains shown, Monoclonal antibody) VH: QVQLQQSGAEVMKPGASVKISCKATGYTFSSYWIEWIKQRPGHGLEWIGEILPGGYNTNSNENFKGKATFTADTSSNTAYMQLSSLTSEDSAVYYCARSGMITTTGDYYAMDYWGQGTSVTVSS VL: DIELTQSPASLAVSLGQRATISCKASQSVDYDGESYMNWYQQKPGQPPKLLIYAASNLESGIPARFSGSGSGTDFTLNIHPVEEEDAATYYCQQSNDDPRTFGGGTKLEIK	0.0868 absorbance (450 nm)

Below: the item to evaluate.
Exercise: Indicate the recorded absorbance at 450 nm value for this binder: DIR antibody IR-II-2 (antibody, V domains shown, Monoclonal antibody) VH: EVQLQQSGAELMKPGASVKISCKATGYTFSSYWIEWVKQRPGHGLEWIGEILPGSGTTNYNEKFKGKATFTVDTSSNTAYMQLSSLTSEDSAVYYCARSGVITARGDYYAMDYWGQGTSVTVSS VL: DIVMTQSPASLAVSLGQRATISCKASQSVDYDGDSYMNWYQQKPGQPPKLLIYAASNLDSGIPARFSGSGSGTDFTLNIHPVEEEDAATYYCQQSNEDPRTFGGGTKLEIK
Solution: 0.115 absorbance (450 nm)
